The reported measurements were obtained from PubChem BioAssay (EPA / NIEHS).

# Assay System: Nuclear receptor subfamily 4 group A member 2 (Homo sapiens) (UniProt P43354)
# Sequence (P43354 whole entry, looked up): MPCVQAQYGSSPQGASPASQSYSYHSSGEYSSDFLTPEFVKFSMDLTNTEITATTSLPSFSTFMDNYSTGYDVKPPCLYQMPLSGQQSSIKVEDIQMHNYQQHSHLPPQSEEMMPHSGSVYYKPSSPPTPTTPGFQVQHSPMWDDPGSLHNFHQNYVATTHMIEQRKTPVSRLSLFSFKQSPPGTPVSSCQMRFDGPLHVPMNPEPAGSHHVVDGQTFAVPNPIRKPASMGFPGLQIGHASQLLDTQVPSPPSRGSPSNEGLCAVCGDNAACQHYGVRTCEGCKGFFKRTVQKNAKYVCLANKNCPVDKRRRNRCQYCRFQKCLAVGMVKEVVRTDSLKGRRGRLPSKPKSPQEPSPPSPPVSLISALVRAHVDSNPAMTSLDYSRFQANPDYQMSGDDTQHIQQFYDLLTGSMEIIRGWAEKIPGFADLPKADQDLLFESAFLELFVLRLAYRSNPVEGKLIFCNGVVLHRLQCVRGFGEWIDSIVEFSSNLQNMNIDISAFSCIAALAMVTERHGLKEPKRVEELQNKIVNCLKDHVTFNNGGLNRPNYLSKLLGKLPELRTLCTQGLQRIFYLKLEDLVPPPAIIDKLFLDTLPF
# Test Description: ATG_NURR1_TRANS: Attagene TRANS-FACTORIAL HepG2 Assay for human Nuclear Receptor Related Protein 1 (NURR1) (AID 2282985)
# Assay Context: HepG2 Attagene TRANS reporter, mRNA readout
Results filed as inconclusive are left out. Activity calls are given as the source filed them. How the source made its calls: active means hit-call score of the fitted dose curve at least 0.9, where 1 is the maximum; inconclusive means response in the unintended direction; inactive means score below 0.9.
Possible outcomes: 1 = active, -1 = inactive

Molecule: CCCCCCOC(=O)c1ccccc1C(=O)OCCCCCC
Discrete Label: -1

Molecule: O=C(O)C(F)(F)C(F)(F)C(F)(F)C(F)(F)C(F)(F)F
Discrete Label: -1

Molecule: Clc1ccc(Cl)cc1
Discrete Label: -1

Molecule: CO/C=C(/C(=O)OC)c1ccccc1COc1cccc(C(F)(F)F)n1
Discrete Label: 1

Molecule: CC(C)C(=O)OCC(C)(C)C(OC(=O)C(C)C)C(C)C (centres undefined)
Discrete Label: -1

Molecule: c1cc2ccc3cccc4ccc(c1)c2c34
Discrete Label: -1

Molecule: CCOCCOC(C)=O
Discrete Label: -1

Molecule: C[C@]12CCC(=O)C=C1CC[C@@H]1[C@@H]2CC[C@@]2(C)[C@H]1CC[C@]2(C)O
Discrete Label: -1

Molecule: O=C(NC(=O)c1cc(F)c(F)cc1Cl)Nc1cc(F)ccc1N1CCC(C(=O)O)CC1
Discrete Label: -1

Molecule: c1ccc(-c2ccccc2)cc1
Discrete Label: -1

Molecule: CCC(C)(c1ccc(O)cc1)c1ccc(O)cc1
Discrete Label: -1

Molecule: CC#Cc1cc(C)nc(Nc2ccccc2)n1
Discrete Label: -1

Molecule: NS(=O)(=O)C(F)(F)C(F)(F)C(F)(F)C(F)(F)C(F)(F)C(F)(F)C(F)(F)C(F)(F)F
Discrete Label: -1

Molecule: CCOP(=S)(OCC)SCSC(C)(C)C
Discrete Label: -1

Molecule: Sc1ccccc1
Discrete Label: -1

Molecule: C[C@]12CCC(=O)C=C1CC[C@@H]1[C@@H]2CC[C@]2(C)C(=O)CC[C@@H]12
Discrete Label: -1

Molecule: CC(C)(c1ccccc1)c1ccc(O)cc1
Discrete Label: -1

Molecule: C=CC(=O)NCNC(=O)C=C
Discrete Label: -1

Molecule: Cc1cc2c3c(c1)C(c1ccccc1)=N[C@@H](NC(=O)c1ccncc1)C(=O)N3CC2
Discrete Label: -1

###

# Read-out: NAD(P)H dehydrogenase [quinone] 1 (NQO1), NQO1 (gene 1728)
# Test Description: LTEA_HepaRG_NQO1: Life Technologies and Expression Analysis (LTEA) Assay for NAD(P)H dehydrogenase [quinone] 1 (NQO1) using HepaRG (AID 2283526)
# Assay Context: mRNA level, 48 h; actives raise or lower the signal
Activity calls are given as the source filed them. The calls were made as follows: active = hit-call score of the fitted dose curve at least 0.9, where 1 is the maximum; inactive = score below 0.9.
Possible outcomes: active, inactive

Molecule: Clc1ccc(C(c2ccccc2Cl)C(Cl)(Cl)Cl)cc1 (stereo not given)
Discrete Label: inactive
//
Molecule: C[C@]12CCC(=O)C=C1CC[C@@H]1[C@@H]2CC[C@@]2(C)[C@H]1CC[C@]2(C)O
Discrete Label: inactive
//
Molecule: c1ccc(-c2ccccc2)cc1
Discrete Label: inactive
//
Molecule: CN(C)c1nc(=O)n(C2CCCCC2)c(=O)n1C
Discrete Label: inactive
//
Molecule: CC(C)C(=O)OCC(C)(C)C(OC(=O)C(C)C)C(C)C (stereo not given)
Discrete Label: inactive
//
Molecule: CCOP(=S)(OCC)SCSC(C)(C)C
Discrete Label: inactive
//
Molecule: Oc1ccc(Cl)cc1Cl
Discrete Label: inactive
//
Molecule: O=C(O)C(F)(F)C(F)(F)C(F)(F)C(F)(F)C(F)(F)C(F)(F)C(F)(F)C(F)(F)C(F)(F)F
Discrete Label: inactive
//
Molecule: CCCCCCOC(=O)c1ccccc1C(=O)OCCCCCC
Discrete Label: inactive
//
Molecule: O=C(N[C@H]1CN2CCC1CC2)c1cc2ccoc2cn1
Discrete Label: inactive
//
Molecule: CCSC(=O)N(CC)C1CCCCC1
Discrete Label: inactive
//
Molecule: c1cc2ccc3cccc4ccc(c1)c2c34
Discrete Label: inactive
//
Molecule: CCOCCOC(C)=O
Discrete Label: inactive
//
Molecule: ClC(Cl)=C(c1ccc(Cl)cc1)c1ccc(Cl)cc1
Discrete Label: inactive
//
Molecule: Oc1ccc(C(c2ccc(O)cc2)(C(F)(F)F)C(F)(F)F)cc1
Discrete Label: active
//
Molecule: CO/C=C(/C(=O)OC)c1ccccc1COc1cccc(C(F)(F)F)n1
Discrete Label: inactive
//
Molecule: CC(c1ccc(O)cc1)(c1ccc(O)cc1)c1ccc(O)cc1
Discrete Label: inactive
//
Molecule: Cc1cc(O)ccc1Cl
Discrete Label: inactive
//
Molecule: CCCN(CCC)N=O
Discrete Label: inactive
//
Molecule: CCC(C)(CC)c1cc(NC(=O)c2c(OC)cccc2OC)on1
Discrete Label: inactive
//
Molecule: NS(=O)(=O)C(F)(F)C(F)(F)C(F)(F)C(F)(F)C(F)(F)C(F)(F)C(F)(F)C(F)(F)F
Discrete Label: active
//
Molecule: CCC(=O)O[C@H]1CC[C@H]2[C@@H]3CCC4=CC(=O)CC[C@]4(C)[C@H]3CC[C@]12C
Discrete Label: inactive
//
Molecule: CC(C)(O)C(=O)Nc1ccc([N+](=O)[O-])c(C(F)(F)F)c1
Discrete Label: active
//
Molecule: CCOC(=O)C(O)(c1ccc(Cl)cc1)c1ccc(Cl)cc1
Discrete Label: inactive
//
Molecule: CC#Cc1cc(C)nc(Nc2ccccc2)n1
Discrete Label: inactive

###

# Assay System: Nuclear respiratory factor 1 (Homo sapiens)
# Test Description: ATG_NRF1_CIS: Attagene CIS-FACTORIAL HepG2 Assay for human Nuclear Respiratory Factor 1 (NRF1) Orphan Gene (AID 2282987)
# Assay Context: HepG2 NRF1 cis-element reporter, Attagene multiplex; actives raise or lower the signal
# Protocol: ATG_CIS is a cell-based, multiplexed-readout assay that uses HepG2, a human liver cell line, with measurements taken at 24 hours after chemical dosing in a 24-well plate.ATG_NRF1_CIS is one of 52 assay component(s) measured or calculated from the ATG_CIS assay. […] This assay endpoint, ATG_NRF1_CIS, was analyzed with bidirectional fitting relative to DMSO as the negative control and baseline of activity. […]
The source made the active and inactive calls. Rule for the calls: active = hit-call score of the fitted dose curve at least 0.9, where 1 is the maximum; inactive = score below 0.9.
Test Readout: AC50

Compound: CCNc1nc(NC(C)C)nc(SC)n1
Measured Result: inactive
--
Compound: O=C(O)C(F)(F)C(F)(F)C(F)(F)C(F)(F)C(F)(F)C(F)(F)C(F)(F)C(F)(F)C(F)(F)F
Measured Result: inactive
--
Compound: CCCCCCCCOC(=O)c1ccccc1C(=O)OCCCCCCCC
Measured Result: inactive
--
Compound: Oc1ccc(Cl)cc1Cl
Measured Result: inactive
--
Compound: CN(C)CCO
Measured Result: inactive
--
Compound: C=CC(=O)NCNC(=O)C=C
Measured Result: inactive
--
Compound: Cc1cc2c3c(c1)C(c1ccccc1)=N[C@@H](NC(=O)c1ccncc1)C(=O)N3CC2
Measured Result: inactive
--
Compound: Cc1ccc(O)c(C)c1
Measured Result: inactive
--
Compound: Cc1cc(-c2ccc(N)c(C)c2)ccc1N
Measured Result: inactive
--
Compound: C=CC(N)=O
Measured Result: inactive
--
Compound: CCSC(=O)N(CC)C1CCCCC1
Measured Result: inactive
--
Compound: C1CC2OC2CC1C1CO1 (centres undefined)
Measured Result: inactive
--
Compound: CC(C)C(=O)OCC(C)(C)C(OC(=O)C(C)C)C(C)C (centres undefined)
Measured Result: inactive
--
Compound: O=C(NC(=O)c1c(F)cccc1F)Nc1cc(Cl)c(OC(F)(F)C(F)F)c(Cl)c1
Measured Result: inactive
--
Compound: Cc1cc(O)ccc1Cl
Measured Result: inactive
--
Compound: O=C(O)C(F)(F)C(F)(F)C(F)(F)C(F)(F)C(F)(F)F
Measured Result: inactive
--
Compound: CCCCCCOC(=O)c1ccccc1C(=O)OCCCCCC
Measured Result: inactive
--
Compound: CCCCCCCCCC[N+](C)(C)CCCCCCCCCC
Measured Result: 100 µM (active)
--
Compound: c1cc2ccc3cccc4ccc(c1)c2c34
Measured Result: inactive
--
Compound: Cc1ccccc1[N+](=O)[O-]
Measured Result: inactive
--
Compound: CCOCCOC(C)=O
Measured Result: inactive
--
Compound: O=C(O)C(F)(F)C(F)(F)C(F)(F)C(F)(F)C(F)(F)C(F)(F)C(F)(F)C(F)(F)F
Measured Result: inactive
--
Compound: Nc1ccc(-c2ccc(N)cc2)cc1
Measured Result: inactive
--
Compound: OCC(O)CO
Measured Result: inactive
--
Compound: Oc1ccc(C(c2ccc(O)cc2)(C(F)(F)F)C(F)(F)F)cc1
Measured Result: inactive
--
Compound: CC(C)(c1ccccc1)c1ccc(O)cc1
Measured Result: inactive
--
Compound: Nn1cnnc1
Measured Result: inactive
--
Compound: Clc1ccc(C(Cl)(Cl)Cl)cc1
Measured Result: inactive
--
Compound: O=S(=O)(O)C(F)(F)C(F)(F)C(F)(F)C(F)(F)F
Measured Result: inactive
